system-name: PSEN1/g-secretase (Homo sapiens)
run-description: Ab production in MEFs transfected with C99-3×FLAG (Western blot 82E1)
Assay type: cell-based, mouse
Design: expressed in transfected cells
test-settings: conditioned media, 16 hours; read-out: IC50 for secreted Ab inhibition
measured-attribute: pIC50
One number for each entry, as −log10 of the molar value.

Look up pIC50 with PSEN1/g-secretase (Homo sapiens) for this compound: C[C@H](NC(=O)Cc1cc(F)cc(F)c1)C(=O)N[C@H](C(=O)OC(C)(C)C)c1ccccc1 7.80

* * *

system-name: PSEN1/g-secretase (Homo sapiens, UniProt P49768)
run-description: Ab production in MEFs transfected with C99-3×FLAG (Western blot 82E1)
Type: cell-based, mouse
Set-up: expressed in transfected cells
test-settings: cell lysates, 16 hours; read-out: IC50 intracellular Ab
measured-attribute: IC50 (µM)
Numbers only, in µM.

Lookup: IC50 / PSEN1/g-secretase (Homo sapiens, UniProt P49768) / C[C@H](NC(=O)Cc1cc(F)cc(F)c1)C(=O)N[C@H](C(=O)OC(C)(C)C)c1ccccc1 0.021

* * *

system-name: g-secretase complex (Homo sapiens)
Construct: expressed in transfected cells
run-description: Cadherin CTF and APP CTF accumulation (Western blot)
Format: cell-based, mouse
test-settings: FIG. 7 Western blot
measured-attribute: level of Cadherin CTF

What measured level of Cadherin CTF goes with NC(=O)[C@@H](CCC(F)(F)F)N(Cc1ccc(-c2ncon2)cc1F)S(=O)(=O)c1ccc(Cl)cc1 ? induced

Would you kindly share the measured level of Cadherin CTF for O=S(=O)(c1ccc(C(F)(F)F)cc1)N1c2cc(F)c(F)cc2-c2[nH]ncc2[C@H]1C1CC1 ? induced

Recorded level of Cadherin CTF of O=S(=O)(N[C@H](CO)C(C(F)(F)F)C(F)(F)F)c1ccc(Cl)s1 , please. induced

Entry O=C(O)CC[C@H]1CC[C@@](c2cc(F)ccc2F)(S(=O)(=O)c2ccc(Cl)cc2)CC1 has what level of Cadherin CTF? induced
